For each of the compounds below, state its IC50.
Test system: MCF7
Assay Info: Antiproliferative activity against human MCF7 cells assessed as BrdU incorporation after 48 hrs
Assay type: functional, cell-based
Measurement Parameters: MCF7, 48 h
Use nM as the unit, but write only the number.

Task item: Give IC50 for `COCCNS(=O)(=O)c1ccc(Nc2nccc(-c3cnc(C)n3C)n2)cc1`
Reply: 620

Task item: Give IC50 for `CNS(=O)(=O)c1ccc(Nc2nccc(-c3cnc(C)n3C)n2)cc1`
Reply: 500

Task item: Give IC50 for `CNS(=O)(=O)c1ccc(Nc2nccc(-c3cnc4cccnn34)n2)cc1`
Reply: 560

Task item: Give IC50 for `Cc1ncc(-c2ccnc(Nc3ccc(S(=O)(=O)NCCCOC(C)C)cc3)n2)n1C`
Reply: 320

Task item: Give IC50 for `NS(=O)(=O)c1ccc(Nc2nccc(-c3cnc4ccccn34)n2)cc1`
Reply: 260

Task item: Give IC50 for `CN(C)CCNS(=O)(=O)c1ccc(Nc2nccc(-c3cnc4cccnn34)n2)cc1`
Reply: 260

Task item: Give IC50 for `Cc1ncc(-c2ccnc(Nc3ccc(S(N)(=O)=O)cc3)n2)n1C`
Reply: 870

Task item: Give IC50 for `COCCNS(=O)(=O)c1ccc(Nc2nccc(-c3cnc4ccccn34)n2)cc1`
Reply: 400

Task item: Give IC50 for `Cc1ncc(-c2ccnc(Nc3ccc(S(=O)(=O)NCCN(C)C)cc3)n2)n1C`
Reply: 490
